Assignment: determine reported protein stability index for the given variants.
B1: AUP1 (parent)
chain: FCASTRLPPTPLLLFPEEEATNGR

variants of: B1; assay: protein stability index of a GFP-peptide fusion (GPS, HEK-293T) (PSI 1-6); higher = more stable; details: c terminus: a fixed tail appended;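 also: lentivirally expressed fusions sorted by FACS into six bins by GFP to DsRed ratio, PSI derived from sequencing read proportions per bin multiplied by bin number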
Note: the reply should be a number with no unit written.

Which protein stability index value is on record for "P9F" ?
1.58

Which protein stability index value is on record for "L14S" ?
3.44

Which protein stability index value is on record for "P11W" ?
2.14

Which protein stability index value is on record for "R24L" ?
2.09

Which protein stability index value is on record for "G23M" ?
2.54

Which protein stability index value is on record for "L14F" ?
2.14

Which protein stability index value is on record for "A3H" ?
2.49

Which protein stability index value is on record for "E19W" ?
1.87

Which protein stability index value is on record for "P9N" ?
2.84

Which protein stability index value is on record for "F1E" ?
4.65

Which protein stability index value is on record for "L14R" ?
3.56

Which protein stability index value is on record for "S4R" ?
3.03

Which protein stability index value is on record for "P9R" ?
2.3

Which protein stability index value is on record for "R6Y" ?
2.33

Which protein stability index value is on record for "S4N" ?
2.94

Which protein stability index value is on record for "F1D" ?
4.35

Which protein stability index value is on record for "L7W" ?
1.51

Which protein stability index value is on record for "E19H" ?
2.23

Which protein stability index value is on record for "P9C" ?
2

Which protein stability index value is on record for "P8H" ?
2.33

Which protein stability index value is on record for "G23C" ?
2.65

Which protein stability index value is on record for "E19Q" ?
2.94

Which protein stability index value is on record for "E19C" ?
2.04

Which protein stability index value is on record for "P16L" ?
1.57

Which protein stability index value is on record for "P9E" ?
2.89

Which protein stability index value is on record for "L12Y" ?
1.97

Which protein stability index value is on record for "R24M" ?
2.38

Which protein stability index value is on record for "L14E" ?
3.74

Which protein stability index value is on record for "P11F" ?
2.08

Which protein stability index value is on record for "C2Y" ?
3.31

Which protein stability index value is on record for "T10G" ?
2.53

Which protein stability index value is on record for "F1L" ?
3.9

Which protein stability index value is on record for "F15R" ?
3.37

Which protein stability index value is on record for "E19P" ?
2.38

Which protein stability index value is on record for "C2W" ?
2.76

Which protein stability index value is on record for "F1C" ?
2.6

Which protein stability index value is on record for "T10V" ?
2.39

Which protein stability index value is on record for "N22V" ?
2.16

Which protein stability index value is on record for "A3Q" ?
2.88

Which protein stability index value is on record for "N22K" ?
2.75

Which protein stability index value is on record for "L7V" ?
3.31

Which protein stability index value is on record for "L14G" ?
2.66

Which protein stability index value is on record for "E18H" ?
2.15

Which protein stability index value is on record for "S4Q" ?
3.36

Which protein stability index value is on record for "E18L" ?
2.54

Which protein stability index value is on record for "N22Y" ?
2.82

Which protein stability index value is on record for "P8A" ?
2.48

Which protein stability index value is on record for "E17D" ?
2.7

Which protein stability index value is on record for "L13D" ?
3.94

Which protein stability index value is on record for "F1K" ?
4.17

Which protein stability index value is on record for "R6H" ?
3.25

Which protein stability index value is on record for "F1P" ?
4.53

Which protein stability index value is on record for "L14D" ?
4.01

Which protein stability index value is on record for "L14V" ?
3.24

Which protein stability index value is on record for "L12S" ?
3.47

Which protein stability index value is on record for "P8S" ?
2.84

Which protein stability index value is on record for "E17I" ?
1.93

Which protein stability index value is on record for "P8I" ?
2.3

Which protein stability index value is on record for "C2R" ?
3.81

Which protein stability index value is on record for "P16Q" ?
2.6

Which protein stability index value is on record for "L12N" ?
3.35

Which protein stability index value is on record for "E19N" ?
2.62

Which protein stability index value is on record for "F1Y" ?
3

Which protein stability index value is on record for "F1I" ?
4.27

Which protein stability index value is on record for "P11E" ?
3.4

Which protein stability index value is on record for "T21D" ?
3.35

Which protein stability index value is on record for "L13N" ?
3.12

Which protein stability index value is on record for "T5H" ?
2.66

Which protein stability index value is on record for "L13Y" ?
2.62

Which protein stability index value is on record for "G23Q" ?
3.09

Which protein stability index value is on record for "L12M" ?
3.25

Which protein stability index value is on record for "R24V" ?
2.85

Which protein stability index value is on record for "P11G" ?
2.54

Which protein stability index value is on record for "P9G" ?
2.78

Which protein stability index value is on record for "T21G" ?
2.68

Which protein stability index value is on record for "P16N" ?
2.9

Which protein stability index value is on record for "P8T" ?
2.94

Which protein stability index value is on record for "P8L" ?
1.96

Which protein stability index value is on record for "T5K" ?
2.64

Which protein stability index value is on record for "L7Q" ?
3.16

Which protein stability index value is on record for "T21L" ?
2.37

Which protein stability index value is on record for "P8N" ?
2.66

Which protein stability index value is on record for "T10Y" ?
1.99

Which protein stability index value is on record for "E18S" ?
2.12

Which protein stability index value is on record for "P11Q" ?
2.58

Which protein stability index value is on record for "R6L" ?
2.73

Which protein stability index value is on record for "L12W" ?
2.77

Which protein stability index value is on record for "A20L" ?
2.72

Which protein stability index value is on record for "L14K" ?
2.8

Which protein stability index value is on record for "P16E" ?
3.48

Which protein stability index value is on record for "C2I" ?
2.62

The reported measurements were obtained from the supplement of paper PMC10567573.
